RUN_DESCRIPTION: Oral bioavailability at a dose of 5.01 mg/kg in rats
Type: ADME, organism-based
CONDITION_SUMMARY: rat, in vivo
TEST_READOUT: bioavailability (%)
// units = %; emit number, no label

Tell me bioavailability reported for C[C@H]1CN(C(=O)N2Cc3c(C(=O)OC(C)(C)C)ncn3-c3ccc(Cl)cc32)C[C@H](C)N1
54

---

RUN_DESCRIPTION: Area under curve was determined for the compound after po dose of 5.22 mg/kg in rats
Format: ADME, organism-based
Set-up: dose 5.22 mg/kg, route oral
CONDITION_SUMMARY: rat, in vivo
TEST_READOUT: AUC (ng·h/mL)
The figure you give is taken to be in ng·h/mL; do not add the unit.

Consider the compound CCCC(=O)O.C[C@@H]1CN(C(=O)N2Cc3c(C(=O)OC(C)(C)C)ncn3-c3ccc(Cl)cc32)C[C@H](C)N1 . State its measured AUC.
3570

---

ASSAY_SYSTEM: GABA-A receptor; anion channel
RUN_DESCRIPTION: Displacement of [3H]flunitrazepam from GABA-A benzodiazepine receptor of rat cortical membranes
Doc: threshold 7 nM (exclusive). Items with Ki beneath it return rule met; others return rule not met.

Bench note: check whether C[C@H]1CN(C(=O)N2Cc3c(C(=O)OC(C)(C)C)ncn3-c3ccc(C(F)(F)F)cc32)C[C@H](C)N1 shows Ki below 7 nM
rule not met

Please determine if Cc1cccc2c1N(C(=O)N1C[C@@H](C)N[C@@H](C)C1)Cc1c(C(=O)OC(C)(C)C)ncn1-2 is below 7 nM in terms of Ki.
rule not met

Criterion: Ki strictly below 7 nM. Is it met by CCCC(=O)O.C[C@@H]1CN(C(=O)N2Cc3c(C(=O)OC(C)(C)C)ncn3-c3ccc(Cl)cc32)C[C@H](C)N1 ?
rule met

Just wondering, is Ki of Cc1ccc2c(c1)N(C(=O)N1C[C@@H](C)N[C@H](C)C1)Cc1c(C(=O)OC(C)(C)C)ncn1-2 below 7 nM?
rule met

Strictly below 7 nM in Ki? CC(C)(C)OC(=O)c1ncn2c1CN(C(=O)N1CCNCC1)c1ccccc1-2.Cl
rule met

Lab log: compare recorded Ki with 7 nM; is it strictly lower for CC(C)(C)OC(=O)c1ncn2c1CN(C(=O)N1CCN(CC(F)(F)F)CC1)c1cc(Cl)ccc1-2 ?
rule not met

Bench note: check whether CC1CN(C(=O)N2Cc3c(C(=O)OC(C)(C)C)ncn3-c3ccc(Cl)cc32)CCN1 (stereo not drawn) shows Ki below 7 nM
rule met

Here's an entry: C[C@@H]1CN(C(=O)N2Cc3c(C(=O)OC(C)(C)C)ncn3-c3ccc(Cl)cc32)C[C@H](C)N1C . Is its Ki below 7 nM?
rule met

Decide: Ki of CN1CCN(C(=O)N2Cc3c(C(=O)OC(C)(C)C)ncn3-c3ccc(Cl)cc32)CC1(C)C strictly below 7 nM?
rule met

In the record for C[C@@H]1CN(C(=O)N2Cc3c(C(=O)OC(C)(C)C)ncn3-c3ccc(Cl)cc32)CCN1 , is Ki less than 7 nM?
rule met

Field: below-cutoff. Rule: recorded Ki strictly less than 7 nM. Subject: CCCC(=O)O.CCN1[C@H](C)CN(C(=O)N2Cc3c(C(=O)OC(C)(C)C)ncn3-c3ccc(Cl)cc32)C[C@@H]1C
rule not met

Ki under 7 nM? Item: C[C@@H]1CN(C(=O)N2Cc3c(C(=O)OC(C)(C)C)ncn3-c3ccc(C(F)(F)F)cc32)C[C@@H](C)N1
rule not met

In plain terms, does C[C@H]1NCCN(C(=O)N2Cc3c(C(=O)OC(C)(C)C)ncn3-c3ccc(Cl)cc32)[C@H]1C come in under 7 nM for Ki?
rule met

State whether 7 nM exceeds Ki recorded for CC1CN(C(=O)N2Cc3c(C(=O)OC(C)(C)C)ncn3-c3ccc(Cl)cc32)C(C)CN1.O=C(O)CC(=O)O (stereo not drawn) .
rule not met

Is Ki of C[C@@H]1CN(C(=O)N2Cc3c(C(=O)OC(C)(C)C)ncn3-c3ccc(Cl)cc32)C[C@H](C)N1CC(F)(F)F strictly below 7 nM?
rule not met

Field: below-cutoff. Rule: recorded Ki strictly less than 7 nM. Subject: CC(C)(C)OC(=O)c1ncn2c1CN(C(=O)N1CCN(C(C)(C)C)CC1)c1cc(Cl)ccc1-2
rule not met

Given the entry CN1CC2CC1CN2C(=O)N1Cc2c(C(=O)OC(C)(C)C)ncn2-c2ccc(Cl)cc21 (stereo not drawn) , would its reported Ki be below 7 nM?
rule met

Hi there! Is Ki for CC1(C)CN(C(=O)N2Cc3c(C(=O)OC(C)(C)C)ncn3-c3ccc(Cl)cc32)CC(C)(C)N1 below 7 nM, do you know?
rule met

# check: Ki < 7 nM for C[C@H]1CN(C(=O)N2Cc3c(C(=O)OC(C)(C)C)ncn3-c3ccc(C(F)(F)F)cc32)CCN1
rule not met

Ki strictly < 7 nM for this compound? CC(C)(C)OC(=O)c1ncn2c1CN(C(=O)N1CC3CC1CN3)c1cc(Cl)ccc1-2 (stereo not drawn)
rule not met

Here's an entry: C[C@H]1CN(C(=O)N2Cc3c(C(=O)OC(C)(C)C)ncn3-c3ccc(Cl)cc32)C[C@H](C)N1 . Is its Ki below 7 nM?
rule not met

Below 7 nM on Ki? Entry C[C@H]1CN(C(=O)N2Cc3c(C(=O)OC(C)(C)C)ncn3-c3ccc(Cl)cc32)CCN1
rule met

# TODO verify Ki < 7 nM strictly for this compound: C[C@@H]1CN(C(=O)N2c3cc(Cl)ccc3-n3cnc(C(=O)OC(C)(C)C)c3C2(C)C)C[C@H](C)N1C
rule not met

Regarding Cc1ccc2c(c1)N(C(=O)N1C[C@@H](C)N[C@@H](C)C1)Cc1c(C(=O)OC(C)(C)C)ncn1-2 , kindly confirm whether its Ki is beneath 7 nM.
rule met

API: query returns whether the compound falls strictly under 7 nM in Ki. Query: C[C@@H]1CN(C(=O)N2Cc3c(C(=O)OC(C)(C)C)ncn3-c3ccc(Cl)cc32)C[C@H](C)N1S(C)(=O)=O.ClCCl
rule met

Record C[C@@H]1CN(C(=O)N2Cc3c(C(=O)OC(C)(C)C)ncn3-c3ccc(C(F)(F)F)cc32)C[C@H](C)N1C : is its Ki strictly below 7 nM?
rule not met

Does the reported Ki of CC(C)N1[C@H](C)CN(C(=O)N2Cc3c(C(=O)OC(C)(C)C)ncn3-c3ccc(Cl)cc32)C[C@@H]1C stay below 7 nM?
rule met

# strict comparison: is reported Ki < 7 nM? input = C[C@@H]1CN(C(=O)N2Cc3c(C(=O)OC(C)(C)C)ncn3-c3ccc(C(F)(F)F)cc32)CCN1
rule not met

hey, is Ki for CN(C)C(=O)N1Cc2c(C(=O)OC(C)(C)C)ncn2-c2ccccc21 lower than 7 nM or not?
rule met

Hi there! Is Ki for C[C@@H]1CN(C(=O)N2Cc3c(C(=O)OC(C)(C)C)ncn3-c3ccccc32)C[C@H](C)N1 below 7 nM, do you know?
rule met

Confirm or reject: Ki of CC(C)(C)OC(=O)c1ncn2c1CN(C(=O)N1CC3CCC(C1)N3)c1cc(Cl)ccc1-2 lies strictly below 7 nM
rule met

Strictly below 7 nM: is that where Ki of CC(C)(C)OC(=O)c1ncn2c1CN(C(=O)N1CCN(C3CC3)CC1)c1cc(Cl)ccc1-2 sits?
rule met

Is 7 nM strictly greater than the compound's reported Ki? compound: Cc1ccc2c(c1)N(C(=O)N1C[C@H](C)N[C@@H](C)C1)Cc1c(C(=O)OC(C)(C)C)ncn1-2
rule not met

---

RUN_DESCRIPTION: Half-life after iv dose of 4.74 mg/kg in rats
Type: ADME, organism-based
Set-up: dose 4.74 mg/kg, route intravenous
CONDITION_SUMMARY: rat, in vivo
TEST_READOUT: half-life
Answer shape: numeric part, then the unit.

Could you please provide reported half-life for C[C@@H]1CN(C(=O)N2Cc3c(C(=O)OC(C)(C)C)ncn3-c3ccc(Cl)cc32)C[C@H](C)N1C ? Thanks!
34.2 min

---

Kindly state Shift for each of the entries shown.
ASSAY_SYSTEM: GABA-A receptor; anion channel (Rattus norvegicus) (UniProt O09028+P15431+P18506+P18508+P19969+P20236+P23574+P23576+P28471+P28473+P30191+P62813+P63079+P63138+Q91ZM7+Q9ES14)
RUN_DESCRIPTION: Shift in [35S]TBPS binding to GABA-A Benzodiazepine receptor of rat brain membrane
Note: the reply should be a number with no unit written.

# return recorded Shift for input CN(C)C(=O)N1Cc2c(C(=O)OC(C)(C)C)ncn2-c2ccccc21
0.15

Write down Shift measured for item C[C@H]1CN(C(=O)N2Cc3c(C(=O)OC(C)(C)C)ncn3-c3ccc(Cl)cc32)CCN1
0.12

Note Shift for the compound shown: CC(C)(C)OC(=O)c1ncn2c1CN(C(=O)N1CC3CC1CN3)c1cc(Cl)ccc1-2 (configuration not stated)
0.33

Fill in Shift for record C[C@@H]1CN(C(=O)N2Cc3c(C(=O)OC(C)(C)C)ncn3-c3ccc(Cl)cc32)C[C@H](C)N1CC(F)(F)F
0.67

In one line, give reported Shift of the entry Cc1ccc2c(c1)N(C(=O)N1CCN[C@H](C)C1)Cc1c(C(=O)OC(C)(C)C)ncn1-2 .
0.19

Complete the entry with Shift for CC1CN(C)CC(C)N1C(=O)N1Cc2c(C(=O)OC(C)(C)C)ncn2-c2ccc(Cl)cc21 (configuration not stated)
1.02

Name the recorded Shift of the compound listed here: CC1(C)CN(C(=O)N2Cc3c(C(=O)OC(C)(C)C)ncn3-c3ccc(Cl)cc32)CCN1
-0.01

Could you please provide reported Shift for CC(C)N1[C@H](C)CN(C(=O)N2Cc3c(C(=O)OC(C)(C)C)ncn3-c3ccc(Cl)cc32)C[C@@H]1C ? Thanks!
-0.97

Dear colleague, please send me the reported Shift for Cc1ccc2c(c1)N(C(=O)N1CCNCC1)Cc1c(C(=O)OC(C)(C)C)ncn1-2 when you can.
0.3

Please give measured Shift of the following entry: C[C@@H]1CN(C(=O)N2Cc3c(C(=O)OC(C)(C)C)ncn3-c3ccccc32)C[C@H](C)N1
-0.018

Given the compound C[C@@H]1CN(C(=O)N2Cc3c(C(=O)OC(C)(C)C)ncn3-c3ccc(Cl)cc32)C[C@@H](C)N1 , write its reported Shift.
0.56

Tell us which Shift value is on record for C[C@@H]1CN(C(=O)N2Cc3c(C(=O)OC(C)(C)C)ncn3-c3ccc(C(F)(F)F)cc32)CCN1
0.6

Identify Shift associated with the compound Cc1ccc2c(c1)N(C(=O)N1C[C@H](C)N[C@@H](C)C1)Cc1c(C(=O)OC(C)(C)C)ncn1-2
0.77

Specify Shift for C[C@@H]1CN(C(=O)N2Cc3c(C(=O)OC(C)(C)C)ncn3-c3cccc(Cl)c32)C[C@H](C)N1 and stop.
0.05

Look up and state reported Shift for C[C@@H]1CN(C(=O)N2Cc3c(C(=O)OC(C)(C)C)ncn3-c3ccccc32)C[C@H](C)N1C
-0.82

Consider the compound C[C@H]1CN(C(=O)N2Cc3c(C(=O)OC(C)(C)C)ncn3-c3ccc(C(F)(F)F)cc32)CCN1 . State its measured Shift.
0.54

Supply recorded Shift for Cc1cccc2c1N(C(=O)N1C[C@@H](C)N[C@@H](C)C1)Cc1c(C(=O)OC(C)(C)C)ncn1-2 here.
0.54
